target: 5-hydroxytryptamine receptor 1D (Cavia porcellus, UniProt Q60484); experiment: In vitro binding affinity towards 5-hydroxytryptamine 1D receptor in guinea-pig striatum in presence of BMY-7378 and mesulergine
metricName: Ki (nM)

>>> observedmeasurement("COc1ccc(C(=O)Nc2ccc(-c3ccncc3)cc2)cc1N1CCN(C)CC1")
3.16
>>> observedmeasurement("COc1ccc(C(=O)Nc2ccc(-c3ccncc3)cc2)cc1CCCN(C)C")
10
>>> observedmeasurement("COc1ccc(C(=O)Nc2ccc(-c3ccc(C(=O)O)cc3C)cc2)cc1CCCN(C)C")
31.6
>>> observedmeasurement("COc1ccc(C(=O)Nc2ccc(-c3ccc(C=O)cc3C)cc2)cc1CCCN(C)C")
6.31
>>> observedmeasurement("COc1ccc(NC(=O)c2ccc(-c3ccc(-c4noc(C)n4)cc3C)cc2)cc1N1CCN(C)CC1")
3.16
>>> observedmeasurement("COc1ccc(NC(=O)c2ccc(-c3ccncc3)cc2)cc1N1CCN(C)CC1")
5.01
>>> observedmeasurement("COc1ccc(C(=O)Nc2ccc(-c3ccc(-c4noc(C)n4)cc3C)cc2)cc1N1CCN(C)CC1")
6.31
>>> observedmeasurement("COCCOC(=O)c1ccc(-c2ccc(NC(=O)c3ccc(OC)c(CCCN(C)C)c3)cc2)c(C)c1")
3.16
>>> observedmeasurement("COc1ccc(NC(=O)c2ccc(-c3ccc(C(=O)N(C)C)cc3C)cc2)cc1N1CCN(C)CC1")
5.01

* * *

target: D(1A) dopamine receptor (Homo sapiens); assay: Binding affinity against dopamine receptor D1
Sequence (P21728 whole entry): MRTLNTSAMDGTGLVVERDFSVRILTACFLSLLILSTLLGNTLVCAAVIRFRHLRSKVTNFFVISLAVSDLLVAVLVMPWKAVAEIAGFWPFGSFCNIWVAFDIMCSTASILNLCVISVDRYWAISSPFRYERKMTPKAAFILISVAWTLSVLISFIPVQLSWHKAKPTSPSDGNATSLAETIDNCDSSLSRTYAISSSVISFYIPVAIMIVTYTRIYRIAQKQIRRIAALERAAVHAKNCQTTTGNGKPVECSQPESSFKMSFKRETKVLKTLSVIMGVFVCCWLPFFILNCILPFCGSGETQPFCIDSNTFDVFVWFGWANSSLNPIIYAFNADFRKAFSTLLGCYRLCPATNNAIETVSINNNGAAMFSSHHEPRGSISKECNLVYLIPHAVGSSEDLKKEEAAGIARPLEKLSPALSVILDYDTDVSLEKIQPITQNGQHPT
metricName: Ki

>>> observedmeasurement("COc1ccc(NC(=O)c2ccc(-c3ccc(-c4noc(C)n4)cc3C)cc2)cc1N1CCN(C)CC1 [GR-127935]")
"> 10 µM"

* * *

Listed below: ED50 values for each entry.
molecular target: 5-hydroxytryptamine receptor 1D (Cavia porcellus) (UniProt Q60484); assay: Oral effective dose against hypothermia in the guinea pig caused by stimulation of central 5-hydroxytryptamine 1D receptors by the agonist GR-46611; format: functional
Sequence (Q60484 whole entry): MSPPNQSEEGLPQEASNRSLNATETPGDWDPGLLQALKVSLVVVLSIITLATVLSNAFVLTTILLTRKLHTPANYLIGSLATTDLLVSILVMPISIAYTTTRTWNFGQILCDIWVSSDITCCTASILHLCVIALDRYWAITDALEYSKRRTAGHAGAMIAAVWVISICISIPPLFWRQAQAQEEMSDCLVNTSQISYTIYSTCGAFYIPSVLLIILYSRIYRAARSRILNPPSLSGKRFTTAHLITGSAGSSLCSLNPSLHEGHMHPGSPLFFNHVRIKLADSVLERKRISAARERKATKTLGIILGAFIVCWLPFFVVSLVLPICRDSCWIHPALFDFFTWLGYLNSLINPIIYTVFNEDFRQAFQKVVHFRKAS
metricName: ED50 (mg/kg)

>>> observedmeasurement("COCCOC(=O)c1ccc(-c2ccc(NC(=O)c3ccc(OC)c(CCCN(C)C)c3)cc2)c(C)c1")
45
>>> observedmeasurement("COc1ccc(C(=O)Nc2ccc(-c3ccc(CO)cc3C)cc2)cc1CCCN(C)C")
45
>>> observedmeasurement("COc1ccc(C(=O)Nc2ccc(-c3ccc(C=O)cc3C)cc2)cc1CCCN(C)C")
45

* * *

target: 5-hydroxytryptamine receptor 4 (Homo sapiens, UniProt Q13639)
Sequence (Q13639 whole entry): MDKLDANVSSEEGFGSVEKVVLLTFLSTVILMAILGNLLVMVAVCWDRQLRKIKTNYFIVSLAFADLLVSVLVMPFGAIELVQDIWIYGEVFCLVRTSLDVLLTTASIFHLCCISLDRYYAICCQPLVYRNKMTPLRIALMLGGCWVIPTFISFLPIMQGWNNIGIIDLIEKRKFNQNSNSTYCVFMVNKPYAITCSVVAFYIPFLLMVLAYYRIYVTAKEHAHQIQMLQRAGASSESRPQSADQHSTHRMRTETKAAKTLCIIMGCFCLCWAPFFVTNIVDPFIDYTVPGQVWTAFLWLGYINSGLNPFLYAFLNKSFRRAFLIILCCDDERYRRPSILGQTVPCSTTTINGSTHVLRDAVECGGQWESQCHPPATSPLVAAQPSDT
pKi: −log10 of the molar value.
metricName: pKi

>>> observedmeasurement("COc1ccc(NC(=O)c2ccc(-c3ccc(-c4noc(C)n4)cc3C)cc2)cc1N1CCN(C)CC1 [GR-127935]")
"< 5.00"

* * *

species on record: Oryctolagus cuniculus; assay: Tested for its ability to block 5-HT2A induced contractile responses in rabbit isolated aorta; type: functional
metricName: pKB

>>> observedmeasurement("CCOc1ccc(NC(=O)c2ccc(OC)c(CCCN(C)C)c2)cc1")
6.2
>>> observedmeasurement("COc1ccc(C(=O)Nc2ccc(-c3ccc(CO)cc3C)cc2)cc1CCCN(C)C")
5.9
>>> observedmeasurement("COCCOC(=O)c1ccc(-c2ccc(NC(=O)c3ccc(OC)c(CCCN(C)C)c3)cc2)c(C)c1")
6.2
>>> observedmeasurement("COc1ccc(C(=O)Nc2ccc(-c3ccc(C(=O)O)cc3C)cc2)cc1CCCN(C)C")
5.7
>>> observedmeasurement("COc1ccc(C(=O)Nc2ccc(-c3ccncc3)cc2)cc1CCCN(C)C")
6.3
